Measured Percent Effect, listed per entry for reference.
# Tested on: Wolbachia pipientis
# test-method-notes: Anti-Wolbachia Cell-Based Screen
# Format: functional
# Parameters: scale not given: in the data most compounds retested in dose-response had high values
# experimental-conditions: 5 µM
Hit rate of the full screen: of about 48,000 compounds, about 13,000 (27%) showed an effect of 50% or more. The list shows a part of the results.

Write Percent Effect of COc1ccc(N(C(=O)c2ccccn2)C(C)C)cc1F ; system used: Wolbachia pipientis 1.663%

Answer with Percent Effect of COc1ccc(NC(=O)N2CCOCC(CN(C)C)C2)c(C)c1 (stereo not given) measured for Wolbachia pipientis. -4.922%

Report value: Percent Effect, system: Wolbachia pipientis, compound: Cc1ccc(Sc2ccc(CN3CCC4(CC3)NCCNC4=O)o2)cc1 -3.78%
